- EXPERIMENT: chemical genetic growth profiling, strain panel (AID 1159580);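 note: tested at 20 µM; growth read once vehicle control cultures reached saturation at 30 °C; 1 = growth at the plate median or of vehicle wells; lower values mean less growth of the strain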
- CONDITION LABEL: S. cerevisiae deletion strains, growth OD, locus YOR290C, strain snf2, active compounds read low
About 2,000 (36%) of roughly 5,500 compounds were called active. Not shown: some 18% with an inconclusive outcome. Some of the results follow.
OBSERVABLE: normalized growth

// below: answered compounds
COMPOUND	normalized growth
CN1C2C[C@H](OC(=O)[C@H](CO)c3ccccc3)C[C@H]1[C@@H](O)C2	0.969 (inactive)
CN1C2CCC1CC(OC(c1ccccc1)c1ccccc1N)C2 (stereo not given)	1.01 (inactive)
CN1C2CCC1CC(OC(c1ccccc1)c1ccccc1)C2 (stereo not given)	0.967 (inactive)
COC(=O)[C@@H]1OC(=O)C2OC23[C@@]1(C)CCC1[C@]2(C)C(C[C@H](O)[C@]13C)C(C)(C)[C@H](OC(C)=O)C[C@@H]2OC(C)=O (stereo not given in full)	1.04 (inactive)

IN: So what does the record say about normalized growth for CC(=O)Oc1cc(OC(C)=O)c2c(c1)O[C@H](c1ccc(OC(C)=O)c(OC(C)=O)c1)[C@H](OC(C)=O)C2 ?
OUT: 0.996 (inactive)

###

- EXPERIMENT: chemical genetic growth profiling, strain panel (AID 1159580)
- CONDITION LABEL: S. cerevisiae deletion strains, growth OD, locus YML124C, strain tub3, active compounds read low
In all, about 5,500 compounds went through this assay and about 2,000 (36%) were called active. Inconclusive results (about 18%) are left out. The list shows a part of the results.
OBSERVABLE: normalized growth
Answers are plain numbers.

// below: answered compounds
COMPOUND	MEASURED
CC1COc2c(N3CCN(C)CC3)c(F)cc3c(=O)c(C(=O)O)cn1c23 (configuration not stated)	1.01
O=C(O[C@@H]1Cc2c(O)cc(O)cc2O[C@@H]1c1cc(O)c(O)c(O)c1)c1cc(O)c(O)c(O)c1	1
C[C@H]1COc2c(N3CCN(C)CC3)c(F)cc3c(=O)c(C(=O)O)cn1c23	1.02

Give normalized growth for each listed item.
1. COc1cc(OC)c2c(c1)O[C@H](c1cc(OC)c(OC)c(OC)c1)[C@H](OC(=O)c1cc(OC)c(OC)c(OC)c1)C2
2. O=C(Oc1cc(OC(=O)c2ccccc2)c2c(c1)O[C@H](c1ccc(OC(=O)c3ccccc3)c(OC(=O)c3ccccc3)c1)[C@@H](OC(=O)c1ccccc1)C2)c1ccccc1

OUT:
[1, 1.03]

Give normalized growth for each listed item.
1. NC(=O)c1ccc[n+]([C@@H]2O[C@H](COP(=O)([O-])OP(=O)(O)OC[C@H]3O[C@@H](n4cnc5c(N)ncnc54)[C@H](OP(=O)(O)O)[C@@H]3O)[C@@H](O)[C@H]2O)c1
2. CC(=O)Oc1cc(OC(C)=O)c2c(c1)O[C@H](c1ccc(OC(C)=O)c(OC(C)=O)c1)[C@H](OC(C)=O)C2

OUT:
[0.991, 1.02]

###

- EXPERIMENT: chemical genetic growth profiling, strain panel (AID 1159580)
- CONDITION LABEL: S. cerevisiae deletion strains, growth OD, locus YBR021W, strain FUR4, active compounds read low
Screen size: about 5,500 compounds; about 2,000 (36%) were called active. Another 18% or so got no clear call; they are omitted. The list shows a part of the results.
What normalized growth was measured for each of the following?

> print(dat)
                                compound         measured
1      COc1ccc(-c2coc3cc(OC)ccc3c2=O)cc1  1.02 (inactive)
2  COc1ccc(-c2coc3cc(O)ccc3c2=O)c(OC)c1O  1.12 (inactive)

Turning to the following compound.
IN: So what does the record say about normalized growth for O=C1CCC(N2C(=O)c3ccccc3C2=O)C(=O)N1 (stereo not drawn) ?
OUT: 0.995 (inactive)

###

- EXPERIMENT: chemical genetic growth profiling, strain panel (AID 1159580)
- CONDITION LABEL: S. cerevisiae deletion strains, growth OD, locus YNR052C, strain pop2, active compounds read low
Hit rate of the full screen: of about 5,500 compounds, about 2,000 (36%) were called active. About 18% were inconclusive and are not listed. The list shows a part of the results.
OBSERVABLE: normalized growth
Answers are plain numbers.

// below: answered compounds
COMPOUND	normalized growth
O=C1c2ccc(O)cc2O[C@H](c2cc(O)c(O)c(O)c2)[C@H]1O	0.967
Oc1cc(O)c2c(c1)OC(c1cc(O)c(O)c(O)c1)C(O)C2c1c(O)cc(O)c2c1OC(c1cc(O)c(O)c(O)c1)C(O)C2c1c(O)cc(O)c2c1OC(c1cc(O)c(O)c(O)c1)C(O)C2 (stereo unspecified)	0.952
Oc1ccc2c(c1)O[C@H](c1ccc(O)c(O)c1)[C@@H](O)C2	1
Oc1cc(O)c2c(c1)O[C@H](c1ccc(O)c(O)c1)[C@@H](O)C2	0.995
C=CCc1ccc(O)c(OC)c1	1.01

IN: So what does the record say about normalized growth for C=CCc1ccc(OC(=O)c2ccccc2)c(OC)c1 ?
OUT: 0.998

###

- EXPERIMENT: chemical genetic growth profiling, strain panel (AID 1159580);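 note: tested at 20 µM; growth read once vehicle control cultures reached saturation at 30 °C; 1 = growth at the plate median or of vehicle wells; lower values mean less growth of the strain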
- CONDITION LABEL: S. cerevisiae deletion strains, growth OD, locus YJR043C, strain POL32, active compounds read low
In all, about 5,500 compounds went through this assay and about 2,000 (36%) were called active. Roughly 18% stayed inconclusive and do not appear here. This is one part of the list.
What normalized growth was measured for each of the following?
Answers are plain numbers.

// below: answered compounds
COMPOUND	normalized growth
C[C@H]1COc2c(N3CCN(C)CC3)c(F)cc3c(=O)c(C(=O)O)cn1c23	0.998
COc1ccc2c(c1)OC/C(=C\c1ccc(OC)c(O)c1)C2=O	0.731
CCCCNC(=O)NS(=O)(=O)c1ccc(C)cc1	1.02
Cc1ccc(C)n1-c1ccc(C(=O)NNC(=O)c2ccc3nccnc3c2)cc1	1.02
O=[N+]([O-])c1cc(C(F)(F)F)c(N2CCCCC2)cc1N1CCCCC1	1.01

Give normalized growth for each listed item.
1. Cc1[nH]c2ccccc2c1CN(C)C
2. Cc1nc(N)ncc1Sc1ccccc1
3. C/C(=N/O)c1sc2nc(C(F)(F)F)nn2c1C
4. Cc1ncc(CNC(=O)N(CCCl)N=O)c(N)n1
5. COC(=O)[C@@H]1OC(=O)C2OC23[C@@]1(C)CCC1[C@]2(C)C(C[C@H](O)[C@]13C)C(C)(C)[C@H](OC(C)=O)C[C@@H]2OC(C)=O (stereo partly specified)
6. O=[N+]([O-])c1ccc(N2CCCCC2)nc1N1CCCCC1

OUT:
1. 0.995
2. 0.991
3. 0.977
4. 0.902
5. 1.01
6. 0.977

###

What normalized growth was measured for each of the following?
- EXPERIMENT: chemical genetic growth profiling, strain panel (AID 1159580);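 note: tested at 20 µM; growth read once vehicle control cultures reached saturation at 30 °C; 1 = growth at the plate median or of vehicle wells; lower values mean less growth of the strain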
- CONDITION LABEL: S. cerevisiae deletion strains, growth OD, locus YKL068W, active compounds read low
Screen size: about 5,500 compounds; about 2,000 (36%) were called active. Inconclusive results (about 18%) are left out. The list shows a part of the results.
One number for each entry.

// below: answered compounds
COMPOUND	normalized growth
COc1ccc2c(c1)OC1(O)COc3cc(OC)c(OC)cc3C1=C2 (stereo unspecified)	0.99
CCC(C)C(=O)OC1CC2(C)C(c3ccoc3)OC(=O)CC23OC2(C)OC34C(OC(=O)C(C)C)C3(O)C(OC(=O)C5(C)OC5C)C5(C)CC3(O)C(C)(C5C(=O)OC)C14O2 (stereo unspecified)	1.01
COC(=O)C[C@H]1C2(C)CC34OC5(C)O[C@@]6([C@H](OC(C)=O)C(OC(C)=O)[C@]7(C)C(/C(=C(/O)C(C)C)C(=O)O[C@H]7c7ccoc7)[C@@]6(O5)[C@H](OC(C)=O)[C@@]3(O)C2OC(=O)C(C)C)[C@]14C (stereo partly specified)	0.986
C[C@@H]1O[C@@H](O[C@H]2[C@H](Oc3cc(O)c4c(=O)cc(-c5ccc(O)cc5)oc4c3)O[C@H](CO)[C@@H](O)[C@@H]2O)[C@H](O)[C@H](O)[C@H]1O	0.987
COC(=O)CC1C2(C)CC34OC5(C)OC6(C7/C(=C(/O)C(C)C)C(=O)OC(c8ccoc8)C7(C)C(OC(=O)C(C)C)C(OC)C6(O5)C13C)C(OC)C4(OC)C2OC(C)=O (stereo unspecified)	1

Turning to the following compound.
IN: So what does the record say about normalized growth for CN(C)CCOC(c1ccc(Cl)cc1)c1ccccn1 (stereo unspecified) ?
OUT: 0.997

###

- EXPERIMENT: chemical genetic growth profiling, strain panel (AID 1159580);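 note: tested at 20 µM; growth read once vehicle control cultures reached saturation at 30 °C; 1 = growth at the plate median or of vehicle wells; lower values mean less growth of the strain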
- CONDITION LABEL: S. cerevisiae deletion strains, growth OD, locus YPR163C, strain tif3
Hit rate of the full screen: of about 5,500 compounds, about 2,000 (36%) were called active. About 18% were inconclusive and are not listed. Rule as the data show it: active = normalized growth mostly below about 0.91 (no sharp cut-off); inconclusive = no clear call, values can overlap the other calls; inactive = mostly above about 0.92. The list shows a part of the results.
Response enum: YES (active), NO (inactive)

COMPOUND	ASSIGNED LABEL
CN1CC(=O)N=C1N	NO
NCCCS(=O)(=O)O	NO
COc1cc(OC)c2c(c1)O[C@H](c1cc(OC)c(OC)c(OC)c1)[C@H](OC(=O)c1cc(OC)c(OC)c(OC)c1)C2	NO
COc1cc(CNC(=O)CCCC/C=C/C(C)C)ccc1O	NO
CN1CC(CO)=C[C@@H]2c3cccc4[nH]cc(c34)C[C@H]21	NO
C[C@@H]1O[C@@H](O[C@H]2[C@H](Oc3cc(O)c4c(=O)cc(-c5ccc(O)cc5)oc4c3)O[C@H](CO)[C@@H](O)[C@@H]2O)[C@H](O)[C@H](O)[C@H]1O	NO

IN: What was the test verdict on CNC(=O)O/N=C(\C)SC ?
OUT: NO

IN: Same again, this time with Cn1c(=O)c2c(ncn2CC(O)CO)n(C)c1=O (centres undefined)
OUT: NO

IN: Same again, this time with COc1cc2nc(N(C)CCCNC(=O)C3CCCO3)nc(N)c2cc1OC (centres undefined)
OUT: NO

IN: Same again, this time with CN(C)CCN(Cc1ccccc1)c1ccccn1
OUT: NO

IN: Same again, this time with COc1ccc(C(c2ccc(OC)cc2)C(Cl)(Cl)Cl)cc1
OUT: NO

IN: Same again, this time with O=C(Oc1cc(OC(=O)c2ccccc2)c2c(c1)O[C@H](c1ccc(OC(=O)c3ccccc3)c(OC(=O)c3ccccc3)c1)[C@@H](OC(=O)c1ccccc1)C2)c1ccccc1
OUT: NO
